Measured pIC50, listed per entry for reference.
- assay name: Inhibition of Escherichia coli UTI89 FimH-mediated biofilm formation after 48 hrs by crystal violet staining-based assay
Would you please state pIC50, meaning minus log10 of the concentration in mol/L, as a bare number?

CNC(=O)c1cccc(-c2ccc([C@@H](O)[C@H]3O[C@H](CO)[C@@H](O)[C@H](O)[C@@H]3O)c(C)c2)c1 | 7.10
Cc1cc(-c2cccc3cnccc23)ccc1[C@@H](O)[C@H]1O[C@H](CO)[C@@H](O)[C@H](O)[C@@H]1O | 6.22
Cc1cc(-c2ccc3c(c2)C(=O)NCC3)ccc1O[C@H]1O[C@H](CO)[C@@H](O)[C@H](O)[C@@H]1O | 6.60
Cc1cc(-c2ccc3cc[nH]c(=O)c3c2)ccc1[C@@H](O)[C@H]1O[C@H](CO)[C@@H](O)[C@H](O)[C@@H]1O | 7.52

Problem: May I ask what pIC50 has been recorded for "CNC(=O)c1cccc(-c2ccc(O[C@H]3O[C@H](CO)[C@@H](O)[C@H](O)[C@@H]3O)c(C)c2)c1" ?
Solution: 6.82

Problem: Quick one: pIC50 for "CNC(=O)c1cccc(-c2ccc([C@H](O)[C@H]3O[C@H](CO)[C@@H](O)[C@H](O)[C@@H]3O)cc2)c1" ?
Solution: 4.42

Problem: Recorded pIC50 for "CNC(=O)c1cccc(-c2ccc([C@@H](O)[C@H]3O[C@H](CO)[C@@H](O)[C@H](O)[C@@H]3O)cc2)c1" , please?
Solution: 6.05

----------
# maps each entry to its IC50
- assay name: Inhibition of Escherichia coli UTI89 FimH-mediated biofilm formation after 48 hrs by crystal violet staining-based assay

Cc1cc(-c2ccc3ccnc(N)c3c2)ccc1[C@@H](O)[C@H]1O[C@H](CO)[C@@H](O)[C@H](O)[C@@H]1O | 0.04 µM
CNC(=O)c1cccc(-c2ccc([C@H](O)[C@H]3O[C@H](CO)[C@@H](O)[C@H](O)[C@@H]3O)c(C)c2)c1 | 11 µM
Cc1cc(-c2ccc3ccnc(N)c3c2)ccc1O[C@H]1O[C@H](CO)[C@@H](O)[C@H](O)[C@@H]1O | 0.34 µM
Cc1cc(-c2ccc3c(c2)C(=O)NCC3)ccc1[C@@H](O)[C@H]1O[C@H](CO)[C@@H](O)[C@H](O)[C@@H]1O | 0.04 µM
Cc1cc(-c2ccc3cc[nH]c(=O)c3c2)ccc1O[C@H]1O[C@H](CO)[C@@H](O)[C@H](O)[C@@H]1O | 0.13 µM

Problem: Recorded IC50 for "Cc1cc(-c2cccc3cnccc23)ccc1O[C@H]1O[C@H](CO)[C@@H](O)[C@H](O)[C@@H]1O" , please?
Solution: 0.14 µM

Problem: # input compound: "CNC(=O)c1cccc(-c2ccc(O[C@H]3O[C@H](CO)[C@@H](O)[C@H](O)[C@@H]3O)cc2)c1" ; wanted: its IC50
Solution: 1.35 µM
